Reference for the values: patent US9499495B2

pIC50: −log10 of the molar value.
As an illustration, consider measured pIC50 for compounds on UniProt P42345.
Sequence (P42345 1362-2549 limits assumed): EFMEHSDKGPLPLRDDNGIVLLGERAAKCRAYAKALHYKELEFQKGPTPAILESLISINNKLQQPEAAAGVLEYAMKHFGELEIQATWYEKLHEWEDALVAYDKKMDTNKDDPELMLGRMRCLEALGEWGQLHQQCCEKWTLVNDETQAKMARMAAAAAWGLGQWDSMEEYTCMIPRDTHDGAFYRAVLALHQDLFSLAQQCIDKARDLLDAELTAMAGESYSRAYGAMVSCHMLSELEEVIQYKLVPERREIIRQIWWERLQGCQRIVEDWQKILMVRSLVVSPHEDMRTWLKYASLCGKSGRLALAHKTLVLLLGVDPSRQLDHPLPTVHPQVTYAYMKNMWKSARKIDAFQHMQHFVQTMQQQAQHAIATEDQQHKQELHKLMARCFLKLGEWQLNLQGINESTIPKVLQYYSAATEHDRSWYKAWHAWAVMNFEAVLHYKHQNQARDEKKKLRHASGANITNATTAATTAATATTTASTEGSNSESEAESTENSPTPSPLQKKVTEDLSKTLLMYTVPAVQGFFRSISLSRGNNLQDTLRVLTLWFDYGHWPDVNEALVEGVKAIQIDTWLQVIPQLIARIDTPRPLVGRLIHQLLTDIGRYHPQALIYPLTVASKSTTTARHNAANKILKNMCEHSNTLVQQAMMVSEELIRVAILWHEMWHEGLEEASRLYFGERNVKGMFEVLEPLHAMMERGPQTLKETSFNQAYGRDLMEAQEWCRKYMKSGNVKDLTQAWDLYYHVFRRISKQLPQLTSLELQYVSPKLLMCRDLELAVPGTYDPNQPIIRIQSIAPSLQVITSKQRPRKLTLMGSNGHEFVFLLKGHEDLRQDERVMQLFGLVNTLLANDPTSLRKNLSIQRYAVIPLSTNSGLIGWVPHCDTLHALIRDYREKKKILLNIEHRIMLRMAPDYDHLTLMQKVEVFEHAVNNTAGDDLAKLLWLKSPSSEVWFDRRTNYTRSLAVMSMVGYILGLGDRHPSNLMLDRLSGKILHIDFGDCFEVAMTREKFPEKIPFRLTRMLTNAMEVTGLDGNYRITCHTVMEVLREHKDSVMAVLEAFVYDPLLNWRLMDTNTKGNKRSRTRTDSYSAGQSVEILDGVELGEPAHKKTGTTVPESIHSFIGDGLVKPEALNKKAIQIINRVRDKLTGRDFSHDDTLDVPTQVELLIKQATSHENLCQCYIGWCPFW

{"columns": ["TEST_SMILES", "pIC50"],
 "data": [
  ["CCCS(=O)(=O)Nc1cccc(-c2ccc3nc(-c4cnc(N)nc4)nc(N4CCOCC4)c3n2)c1F", "6.00 to 7.00"]
]}

Query :: Value lookup for pIC50; key = `Nc1ccc(-c2nc(N3CCOCC3)c3nc(-c4cccc(NS(=O)(=O)c5cc(F)ccc5F)c4F)ccc3n2)cn1`
Result :: 6.00 to 7.00

Query :: Field request: pIC50 | item: `Nc1ccc(-c2nc(N3CCOCC3)c3cc(-c4cccc(NS(=O)(=O)CCCF)c4F)cc(OC4CCCC4)c3n2)cn1`
Result :: 7.00 to 9.00

Query :: Param item = `CCCS(=O)(=O)Nc1cccc(-c2cc(OC)c3nc(-c4ccc(NC(=O)NC)cc4)nc(N4CCOCC4)c3c2)c1F` ; retrieve measured pIC50.
Result :: 7.00 to 9.00

Query :: Can you share its pIC50? I mean this compound: `CCOc1cc(-c2cccc(NS(=O)(=O)CCCF)c2F)cc2c(N3CCOC[C@@H]3C)nc(-c3ccc(N)nc3)nc12`
Result :: 7.00 to 9.00

Query :: # get_value(readout='pIC50', item= `NCCOc1cc(-c2cccc(NS(=O)(=O)CCCF)c2F)cc2c(N3CCOCC3)nc(-c3ccc(N)nc3)nc12` )
Result :: 7.00 to 9.00

Query :: Name the recorded pIC50 for `C[C@H]1COCCN1c1nc(-c2ccc(N)nc2)nc2ccc(-c3cccc(NS(=O)(=O)CCCF)c3F)nc12` .
Result :: 7.00 to 9.00

Query :: Would you kindly share the measured pIC50 for `Cc1cc(-c2nc(N3CCOCC3)c3nc(-c4cccc(NS(=O)(=O)CCCF)c4F)ccc3n2)cnc1N` ?
Result :: 6.00 to 7.00

Query :: Which measured pIC50 value corresponds to `Cc1cc(-c2cccc(NS(=O)(=O)CCCF)c2F)cc2c(N3CCOCC3)nc(-c3cnc(N)nc3)nc12` ?
Result :: 6.00 to 7.00

Query :: Dear colleague, I am looking for the recorded pIC50 of the following compound: `CCc1cc(-c2cccc(NS(=O)(=O)CCCF)c2F)cc2c(N3CCOC[C@H]3C)nc(-c3cnc(N)nc3)nc12`
Result :: 6.00 to 7.00

Query :: # get_value(readout='pIC50', item= `COc1cc(-c2cccc(NS(=O)(=O)CCCF)c2F)cc2c(N3CCOC[C@H]3C)nc(-c3cnc(N)cn3)nc12` )
Result :: 6.00 to 7.00

Query :: Any idea what pIC50 was measured for `CCCS(=O)(=O)Nc1ccc(F)c(-c2cc(OC)c3nc(-c4ccc(N)nc4)nc(N4CCOCC4)c3c2)c1F` ?
Result :: 7.00 to 9.00

Query :: pIC50 lookup needed for `CC(C)Oc1cc(-c2cccc(NS(=O)(=O)CCCF)c2F)cc2c(N3CCOC[C@H]3C)nc(-c3ccc(N)nc3)nc12` , thanks.
Result :: 7.00 to 9.00

----------
Entries and their IC50
biological target: B-RAFV600E (Homo sapiens, UniProt P15056, V600E); assay: B-RAFV600E radiometric assay; settings: read-out: Kinase assay B-Raf
Sequence (P15056 416-766 V600E limits assumed): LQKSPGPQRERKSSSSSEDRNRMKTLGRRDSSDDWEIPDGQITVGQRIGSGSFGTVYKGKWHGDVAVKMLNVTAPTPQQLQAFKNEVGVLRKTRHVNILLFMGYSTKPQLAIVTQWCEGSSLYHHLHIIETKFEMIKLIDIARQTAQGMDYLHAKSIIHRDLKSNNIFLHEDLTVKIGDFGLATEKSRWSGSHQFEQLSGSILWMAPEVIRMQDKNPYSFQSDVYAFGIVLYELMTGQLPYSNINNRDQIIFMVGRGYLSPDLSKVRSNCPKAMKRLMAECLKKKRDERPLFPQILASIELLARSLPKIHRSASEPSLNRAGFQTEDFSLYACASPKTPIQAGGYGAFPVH

Answered cases to consult:
{"columns": ["COMPOUND", "IC50"],
 "data": [
  ["COc1cc(-c2cccc(NS(=O)(=O)CCCF)c2F)cc2c(N3CCOCC3)nc(-c3cnc(N)nc3)nc12 [Example 27]", "1 to 100 nM"],
  ["COc1cc(-c2cccc(NS(=O)(=O)c3ccc(F)cc3F)c2F)cc2c(N3CCOCC3)nc(-c3cnc(N)nc3)nc12 [Example 24]", "100 to 1000 nM"],
  ["CCCS(=O)(=O)Nc1ccc(F)c(-c2cc(OC)c3nc(-c4ccc(N)nc4)nc(N4CCOCC4)c3c2)c1F [Example 75]", "1 to 100 nM"],
  ["O=S(=O)(CCCF)Nc1cccc(-c2ccc3nc(-c4ccc(NCCO)nc4)nc(N4CCOCC4)c3n2)c1F [Example 99]", "1 to 100 nM"],
  ["CCCS(=O)(=O)Nc1cccc(-c2cc(OC)c3nc(-c4ccc(NC(=O)NC)cc4)nc(N4CCOCC4)c3c2)c1F [Example 14]", "100 to 1000 nM"]
]}

Query :: I'm curious: which IC50 was measured for COc1cc(-c2cccc(NS(=O)(=O)CCCF)c2F)cc2c(N3CCOC[C@H]3C)nc(-c3cnc(N)cn3)nc12 [Example 143] tested on B-RAFV600E (Homo sapiens, UniProt P15056, V600E)?
Result :: 1 to 100 nM

Query :: Notebook: pull reported IC50 for B-RAFV600E (Homo sapiens, UniProt P15056, V600E), entry COCCOc1cc(-c2cccc(NS(=O)(=O)CCCF)c2F)cc2c(N3CCOCC3)nc(-c3cnc(N)nc3)nc12 [Example 68]
Result :: 1 to 100 nM

Query :: API: value(readout= IC50, system= B-RAFV600E (Homo sapiens, UniProt P15056, V600E), query= CC(C)Nc1ccc(-c2nc(N3CCOCC3)c3nc(-c4cccc(NS(=O)(=O)CCCF)c4F)ccc3n2)cn1 [Example 114] )
Result :: 1 to 100 nM

Query :: Query IC50 on B-RAFV600E (Homo sapiens, UniProt P15056, V600E) for C[C@@H]1COCCN1c1nc(-c2ccc(N)nc2)nc2ccc(-c3cccc(NS(=O)(=O)CCCF)c3F)nc12 [Example 96]
Result :: 1 to 100 nM

Query :: Checklist item: IC50 tested on B-RAFV600E (Homo sapiens, UniProt P15056, V600E), entry C[C@H]1COCCN1c1nc(-c2cnc(N)cc2C(F)(F)F)nc2ccc(-c3cccc(NS(=O)(=O)CCCF)c3F)nc12 [Example 108] , value?
Result :: 1 to 100 nM

----------
molecular target: B-RAFV600E (Homo sapiens, UniProt P15056, V600E); test: B-RAFV600E radiometric assay; conditions: read-out: Kinase assay B-Raf
pIC50: −log10 of the molar value.
READOUT: pIC50

The cases that follow already have their pIC50 on record.
{"columns": ["MOLECULE", "SYSTEM", "READOUT", "VALUE"],
 "data": [
  ["CCCS(=O)(=O)Nc1cccc(-c2cc(OC)c3nc(-c4cnc(N)nc4)nc(N4CCOCC4)c3c2)c1F", "B-RAFV600E (Homo sapiens, UniProt P15056, V600E)", "pIC50", "6.00 to 7.00"],
  ["COc1cc(-c2cccc(NS(=O)(=O)CCCF)c2F)cc2c(N3CCOC[C@H]3C)nc(-c3cnc(N)cc3C#N)nc12", "B-RAFV600E (Homo sapiens, UniProt P15056, V600E)", "pIC50", "7.00 to 9.00"],
  ["CCCS(=O)(=O)Nc1cccc(-c2cc(OC)c3nc(-c4ccc(N)nc4)nc(N4CCOCC4)c3c2)c1F", "B-RAFV600E (Homo sapiens, UniProt P15056, V600E)", "pIC50", "7.00 to 9.00"],
  ["Nc1ccc(-c2nc(N3CCOCC3)c3cc(-c4cccc(NS(=O)(=O)CCCF)c4F)ccc3n2)cn1", "B-RAFV600E (Homo sapiens, UniProt P15056, V600E)", "pIC50", "7.00 to 9.00"],
  ["COc1cc(-c2c(F)ccc(NS(=O)(=O)CCCF)c2F)cc2c(N3CCOCC3)nc(-c3cccc4[nH]ncc34)nc12", "B-RAFV600E (Homo sapiens, UniProt P15056, V600E)", "pIC50", "7.00 to 9.00"]
]}

Query :: Form field - read-out: pIC50; system: B-RAFV600E (Homo sapiens, UniProt P15056, V600E); submitted item: `COc1cc(-c2cccc(NS(=O)(=O)CCCF)c2F)cc2c(N3CCOC[C@H]3C)nc(-c3ccc(N)nc3)nc12`
Result :: 7.00 to 9.00

Query :: Request - read-out pIC50 | tested on B-RAFV600E (Homo sapiens, UniProt P15056, V600E) | molecule `CNc1ncc(-c2nc(N3CCOCC3)c3cc(-c4cccc(NS(=O)(=O)CCCF)c4F)cc(OC)c3n2)cn1`
Result :: 7.00 to 9.00

Query :: What pIC50 appears in the records for this molecule with B-RAFV600E (Homo sapiens, UniProt P15056, V600E)? `CCc1cc(-c2cccc(NS(=O)(=O)CCCF)c2F)cc2c(N3CCOC[C@H]3C)nc(-c3cnc(N)nc3)nc12`
Result :: 7.00 to 9.00

Query :: Field: pIC50 (B-RAFV600E (Homo sapiens, UniProt P15056, V600E)). Entry: Nc1ccc(-c2nc(N3CCOCC3)c3cc(-c4cccc(NS(=O)(=O)CCCF)c4F)cc(OCC(=O)O)c3n2)cn1 [Example 59, 2,2,2-trifluoroacetate]
Result :: 6.00 to 7.00

Query :: Param readout = pIC50; param system = B-RAFV600E (Homo sapiens, UniProt P15056, V600E); param query = `CNC(=O)Nc1ccc(-c2nc(N3CCOCC3)c3nc(-c4cccc(NS(=O)(=O)CCCF)c4F)ccc3n2)cc1` ; response: value
Result :: 7.00 to 9.00

Query :: Notebook entry, B-RAFV600E (Homo sapiens, UniProt P15056, V600E) assay: pIC50 of `COc1cc(-c2cccc(NS(=O)(=O)c3c(F)cccc3F)c2F)cc2c(N3CCOCC3)nc(-c3cnc4[nH]ccc4c3)nc12` = ?
Result :: 6.00 to 7.00

Query :: Return pIC50 measured with B-RAFV600E (Homo sapiens, UniProt P15056, V600E) given this molecule: `CCCS(=O)(=O)Nc1ccc(Cl)c(-c2cc(OC)c3nc(-c4ccc(N)nc4)nc(N4CCOCC4)c3c2)c1F`
Result :: 7.00 to 9.00

Query :: So what pIC50 did `CCOc1cc(-c2cccc(NS(=O)(=O)CCCF)c2F)cc2c(N3CCOC[C@@H]3C)nc(-c3cnc(N)nc3)nc12` get with B-RAFV600E (Homo sapiens, UniProt P15056, V600E)?
Result :: 7.00 to 9.00

Query :: Please state recorded pIC50 (tested on B-RAFV600E (Homo sapiens, UniProt P15056, V600E)) of `CCCS(=O)(=O)Nc1cccc(-c2cc(OCCO)c3nc(-c4ccc(N)nc4)nc(N4CCOCC4)c3c2)c1F`
Result :: 6.00 to 7.00

Query :: What value of pIC50 on B-RAFV600E (Homo sapiens, UniProt P15056, V600E) does `O=S(=O)(CCCF)Nc1cccc(-c2ccc3nc(-c4cnc5[nH]ccc5c4)nc(N4CCOCC4)c3n2)c1F` have?
Result :: 7.00 to 9.00

Query :: For the record `Cc1cc(-c2nc(N3CCOCC3)c3nc(-c4cccc(NS(=O)(=O)CCCF)c4F)ccc3n2)cnc1N` , what value of pIC50 is listed for B-RAFV600E (Homo sapiens, UniProt P15056, V600E)?
Result :: 7.00 to 9.00
